target-entity: full-length human PKCι (Homo sapiens)
Construct: Recombinant, full-length human PKCι expressed in Sf21 insect cells is also commercially available
Sequence (P41743 whole entry): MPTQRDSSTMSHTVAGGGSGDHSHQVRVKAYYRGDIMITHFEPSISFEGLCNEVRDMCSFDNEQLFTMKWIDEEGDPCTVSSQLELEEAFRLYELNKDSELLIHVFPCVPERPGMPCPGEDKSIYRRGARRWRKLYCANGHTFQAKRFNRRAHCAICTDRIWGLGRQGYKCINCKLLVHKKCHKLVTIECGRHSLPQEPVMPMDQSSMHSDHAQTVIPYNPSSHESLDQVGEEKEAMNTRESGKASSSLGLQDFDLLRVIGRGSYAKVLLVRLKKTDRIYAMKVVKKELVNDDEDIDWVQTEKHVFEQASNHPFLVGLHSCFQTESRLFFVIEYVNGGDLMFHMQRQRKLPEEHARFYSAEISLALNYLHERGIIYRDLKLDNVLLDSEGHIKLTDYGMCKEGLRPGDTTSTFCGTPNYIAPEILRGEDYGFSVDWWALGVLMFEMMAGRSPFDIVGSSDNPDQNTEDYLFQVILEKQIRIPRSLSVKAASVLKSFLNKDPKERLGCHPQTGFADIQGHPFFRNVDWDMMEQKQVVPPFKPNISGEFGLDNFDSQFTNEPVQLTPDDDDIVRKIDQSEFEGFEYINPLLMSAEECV
assay-method-text: PKCι IC50 IMAP assay, full-length PKCι at 150 μM ATP
recorded-conditions: read-out: IC50 in IMAP assay against full length PKCi at 150 μM ATP
measure-name: IC50

>  <molecule>
COc1ccnc(Nc2cc(-c3nc(N4CCNCC4)c4c(OC)cncc4n3)ccn2)c1 [Example 401]

>  <observed-value>
< 100 nM

$$$$
>  <molecule>
Fc1cc(-c2nc(N3CCNCC3)c3c(C4CC4)cncc3n2)ccn1 [Example 689]

>  <observed-value>
< 100 nM

$$$$
>  <molecule>
c1ccc2oc(Nc3cc(-c4nc(N5CCNCC5)c5c(C6CC6)cncc5n4)ccn3)nc2c1 [Example 2044]

>  <observed-value>
< 100 nM

$$$$
>  <molecule>
COc1cncc2nc(-c3ccnc(NC(=O)Cc4cccc(C#N)c4)c3)nc(N3CCC(O)CC3)c12 [Example 403]

>  <observed-value>
100 to 1000 nM

$$$$
>  <molecule>
c1cc(-c2nc(N3CCNCC3)c3c(C4CC4)cncc3n2)cc(N[C@H]2CCOC2)n1 [Example 518]

>  <observed-value>
< 100 nM

$$$$
>  <molecule>
Clc1nccc2c(N3CCNCC3)nc(-c3ccncc3)nc12 [Example 32]

>  <observed-value>
100 to 1000 nM

$$$$
>  <molecule>
FC(F)(F)c1cc2c(-c3nc(N4CCCCC4)c4c(C5CC5)cncc4n3)ccnc2[nH]1 [Example 1237]

>  <observed-value>
100 to 1000 nM

$$$$
>  <molecule>
O=C(Nc1cc(-c2nc(N[C@@H]3CCNC3)c3ccncc3n2)ccn1)c1cnccn1 [Example 307]

>  <observed-value>
100 to 1000 nM

$$$$
>  <molecule>
Clc1cccc(Nc2cc(-c3nc(N4CCNCC4)c4c(C5CC5)cncc4n3)ccn2)c1Cl [Example 542]

>  <observed-value>
100 to 1000 nM

$$$$
>  <molecule>
COCCNC(=O)C1CCN(c2nc(-c3ccnc(Nc4c(F)cccc4F)c3)nc3cncc(C4CC4)c23)CC1 [Example 739]

>  <observed-value>
100 to 1000 nM

$$$$
>  <molecule>
FC(F)(F)[C@H]1CN(c2nc(-c3ccnc(Cl)c3)nc3cncc(C4CC4)c23)CCN1 [Example 660]

>  <observed-value>
10000 to 40000 nM

$$$$
>  <molecule>
CC(C)[C@H]1CN(c2nc(-c3ccncc3)nc3cnccc23)CCN1 [Example 62]

>  <observed-value>
1000 to 10000 nM

$$$$
>  <molecule>
CC(C)c1ccc(F)c(Nc2cc(-c3nc(N4CCNCC4)c4c(C5CC5)cncc4n3)ccn2)c1 [Example 716]

>  <observed-value>
< 100 nM

$$$$
>  <molecule>
Cc1cc2c(-c3nc(N4CCNC(C(F)(F)F)C4)c4c(C5CC5)cncc4n3)ccnc2[nH]1 (centres unmarked) [Example 1215]

>  <observed-value>
< 100 nM

$$$$
>  <molecule>
COc1cncc2nc(-c3ccnc(Nc4ccc(C)cn4)c3)nc(N3CCNCC3)c12 [Example 364]

>  <observed-value>
< 100 nM

$$$$
>  <molecule>
COc1cncc2nc(N3CCOCC3)nc(N3CCN[C@@H](COc4ccccc4F)C3)c12 [Example 1008]

>  <observed-value>
100 to 1000 nM

$$$$
>  <molecule>
Fc1cnc(Nc2ccccc2)cc1-c1nc(N2CCNCC2)c2c(C3CC3)cncc2n1 [Example 654]

>  <observed-value>
< 100 nM

$$$$
